# % assay/degs, difference from T = 0 values compiled below
format: physicochemical; settings: pH 2.0; Ambient; 3 h
# unit: % | format: bare number

{"smiles input": "N#C[C@@]1(c2ccc3c(N)ncnn23)O[C@H](COP(=O)(O)Oc2ccccc2)[C@@H](O)[C@H]1O", "endpoint unit": "%", "numeric result": 0.08}
{"smiles input": "CCC(CC)COC(=O)[C@H](C)N[P@](=O)(OC[C@H]1O[C@@](C#N)(c2ccc3c(N)ncnn23)[C@H](O)[C@@H]1O)Oc1ccccc1", "endpoint unit": "%", "numeric result": 0.3}
{"smiles input": "N#C[C@@]1(c2ccc3c(N)ncnn23)O[C@H](CO)[C@@H](O)[C@H]1O", "endpoint unit": "%", "numeric result": 0.00}

Here's the next entry for you.
Lab note: `CCC(CC)COC(=O)[C@H](C)N[P@](=O)(OC[C@H]1O[C@@](C(N)=O)(c2ccc3c(N)ncnn23)[C@H](O)[C@@H]1O)Oc1ccccc1` gave % assay/degs, difference from T = 0 of 0.00
